# AC50 measurements, system: Mu-type opioid receptor (Homo sapiens, UniProt P35372); also: assay procedure not described here
# Sequence (P35372 whole entry): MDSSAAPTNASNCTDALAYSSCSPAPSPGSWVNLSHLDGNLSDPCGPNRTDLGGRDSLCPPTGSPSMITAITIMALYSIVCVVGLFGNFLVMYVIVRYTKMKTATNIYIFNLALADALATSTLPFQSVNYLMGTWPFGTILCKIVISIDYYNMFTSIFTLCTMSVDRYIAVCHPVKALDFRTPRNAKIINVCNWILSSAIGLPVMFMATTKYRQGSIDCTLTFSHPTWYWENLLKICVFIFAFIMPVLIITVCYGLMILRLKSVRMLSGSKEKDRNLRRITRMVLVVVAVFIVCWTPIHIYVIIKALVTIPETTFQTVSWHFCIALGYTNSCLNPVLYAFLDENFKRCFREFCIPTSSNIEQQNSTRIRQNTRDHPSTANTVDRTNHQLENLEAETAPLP
Readout Kind: AC50

1) NS(=O)(=O)Cc1noc2ccccc12 [ZONISAMIDE]: > 30 µM
2) Cc1cn([C@H]2C[C@H](N=[N+]=[N-])[C@@H](CO)O2)c(=O)[nH]c1=O: > 30 µM
3) C1CCC(C(CC2CCCCN2)C2CCCCC2)CC1 (centres undefined): 16 µM
4) COC(=O)[C@H]1[C@H]2C[C@@H]3c4[nH]c5cc(OC)ccc5c4CCN3C[C@H]2C[C@@H](OC(=O)/C=C/c2cc(OC)c(OC)c(OC)c2)[C@@H]1OC: > 10 µM
